test system: skin of guinea pigs; assay: Skin compatibility test on guinea pigs; assay type: in vivo, guinea pig (Perbright White strain); conditions: 0.03%, end of 2nd week; score 0 no irritation to 3 very strong erythema
property: Sum of the reactions divided by the number of animals
Numbers only.

Some solved cases for reference:
- compound: "O=C1c2c(O)cccc2Cc2cccc(O)c21 [Compound A, 1,8-Dihydroxy-9-(10H)anthracenone]"
  readout.value: 2.16
- compound: "CC(C)(C)c1ccc2c(c1O)C(=O)c1c(ccc(C(C)(C)C)c1O)C2"
  readout.value: 0.042
- compound: "O=C1c2c(O)ccc(Cl)c2Cc2c(Cl)ccc(O)c21"
  readout.value: 0

--- query ---
State its Sum of the reactions divided by the number of animals: `CC(C)(C)c1ccc2c(c1O)C(=O)c1c(O)cccc1C2` 0.042
